Ref: PubChem BioAssay (NCI)

system: SK-MEL-28 melanoma; assay: NCI-60 one-dose screen, 48 h (100 = growth as untreated, 0 = no growth, -100 = all killed); settings: 10 µM unless noted
About 83,000 compounds went through this panel and 20% of them were active in at least one assay; those are over-represented in the sample as a whole.
METRIC: growth (%)
Expressed in %, but write only the number.

Supply measured growth of N#Cc1c(Nc2ccc(N3CCOCC3)cc2)nc(SCC(=O)c2ccc(Br)cc2)nc1-c1ccccc1 in your reply.
104

Supply measured growth of CCN1C(=O)N(CC)C2C1NN=c1s/c(=C3\C(=O)N(CCC(C)C)c4ccccc43)c(=O)n12 (centres undefined) in your reply.
59.9

Supply measured growth of COc1cccc(-c2cc(-c3cccc(Cl)c3)c(C#N)c(=O)[nH]2)c1 in your reply.
72.3

Supply measured growth of CCCCCCCCCCCCCCCCCC1=NC(C)(C)CN1CC(C)O (centres undefined) in your reply.
105

Supply measured growth of CCCC(CC)(C(=O)Nc1ccc2nc(C)cc(N)c2c1)C(=O)Nc1ccc2nc(C)cc(N)c2c1 in your reply.
110

Supply measured growth of CCOC(=O)CC1CSC(Nc2ccccc2)=N1 (centres undefined) in your reply.
115

Supply measured growth of Cc1ccc(-c2nc(/C=C3/C(=O)Nc4ccc(F)cc43)c3ccccn23)cc1 in your reply.
103

Supply measured growth of NS(=O)(=O)c1ccc(-c2cc(-c3nnc(SCC(=O)Nc4ccc(C(=O)/C=C/c5ccc(Cl)cc5)cc4)n3-c3ccccc3)c3ccccc3n2)cc1 in your reply.
97

Supply measured growth of COC(=O)CCC/C=C\C[C@H]1C=CC(=O)/C1=C/C[C@@H](O)C/C=C\CC(F)(F)F in your reply.
-25.5

---

test system: SK-MEL-28 melanoma; assay: NCI-60 one-dose screen, 48 h; settings: 10 µM unless noted
The panel holds about 83,000 compounds, 20% with a hit somewhere; the sample as a whole holds those more often. Activity calls are given as the source filed them. The calls were made as follows: active = growth percent below 10; inactive = the rest.
The categories you may choose from are active, inactive

Record lookup: outcome of this test for CN1CCN(CCOc2ccc(-c3cnc4c(-c5ccc(F)cc5)cnn4c3)cc2)CC1 ?
inactive

Record lookup: outcome of this test for COc1ccc(N2CCN(C(=O)c3sc4nc(C)c(Br)c(C)c4c3N)CC2)cc1 ?
inactive

Record lookup: outcome of this test for O=C(O)COc1ccc(Cl)c(Cl)c1 ?
inactive

Record lookup: outcome of this test for CN1CCN(Cc2ccc(NC(=O)c3cncc(C#Cc4cnc5ccc(Cl)nn45)c3)cc2C(F)(F)F)CC1 ?
active

Record lookup: outcome of this test for C=C1C(=O)O[C@H]2[C@H]1CC/C(COC(=O)c1ccc(C(=O)O)s1)=C\CC[C@@]1(C)O[C@@H]21 ?
inactive

Record lookup: outcome of this test for C=C1CC[C@@H]2C(C)(C)[C@@H](O)CC[C@@]2(C)[C@@H]1COc1ccc2ccc(=O)oc2c1 ?
inactive

Record lookup: outcome of this test for O=C(/C=C/c1ccc(Cl)cc1)c1cccc(OCCCOc2cccc(C(=O)/C=C/c3ccc(Cl)cc3)c2)c1 ?
inactive

Record lookup: outcome of this test for CN(C)c1ccc(/C=C(\C#N)c2cc3ccccc3[nH]2)cc1 ?
inactive

Record lookup: outcome of this test for CCN1CCN(CC(=O)Nc2ccc(-c3cn4c(n3)sc3cc(Oc5ccnc(C(=O)NC)c5)ccc34)cc2)CC1 ?
inactive

Record lookup: outcome of this test for Cc1ccc2nc(NC(=O)CSc3nc(-c4ccccc4)c(C#N)c4nnnn34)sc2c1 ?
inactive

Record lookup: outcome of this test for N=C(N)c1ccc(-c2ccc(-c3cc(Cl)cc(Cl)c3)s2)nc1 ?
inactive

Record lookup: outcome of this test for CC1(C)OB(O)c2cc(-c3nc4ccc5[nH]ncc5c4c4c3CCCC4)ccc21 ?
inactive

Record lookup: outcome of this test for COc1ccc(C2=CN3CC=CC3CC2=O)cc1 (stereo not given) ?
inactive

Record lookup: outcome of this test for CN(Cc1ccccc1)c1nc(Cl)c(C2CC(c3ccccc3)=NN2c2ccccc2)s1 (stereo not given) ?
inactive

Record lookup: outcome of this test for O=C(Nc1ccc(Br)cc1)C1=NCCCCN1 ?
inactive

Record lookup: outcome of this test for N#CC1=C(N)Oc2ccc3ccccc3c2C1c1ccc([N+](=O)[O-])cc1 (stereo not given) ?
inactive

Record lookup: outcome of this test for O=C(/C=C/c1ccc(Oc2ccc(Br)cc2)cc1)c1ccc(Br)cc1 ?
inactive

Record lookup: outcome of this test for CC1(C)CC[C@]2(C(=O)N[C@H](CO)Cc3ccccc3)CC[C@]3(C)C(=CC[C@@H]4[C@@]5(C)CCCNC(C)(C)[C@@H]5CC[C@]43C)[C@@H]2C1 ?
inactive

Record lookup: outcome of this test for COc1cccc(/C=N/NC(=O)c2ccccc2N2CCCC2)c1O ?
inactive

Record lookup: outcome of this test for CC1C(/C=N/NC(N)=S)C(C#N)(C#N)C1(C#N)C#N (stereo not given) ?
inactive

---

test system: NCI-H226 lung; assay: NCI-60 one-dose screen, 48 h; conditions: 10 µM unless noted
The panel holds about 83,000 compounds, 20% with a hit somewhere; the sample as a whole holds those more often. Calls of active or inactive are those of the source. How the source made its calls: active means growth percent below 10; inactive means the rest.
The categories you may choose from are Yes (active), No (inactive)

Record lookup: outcome of this test for COc1cc(C2C(C(=O)OCc3ccccc3)=C(C)NC(C)=C2C(=O)OCc2ccccc2)cc(OC)c1OC ?
No

Record lookup: outcome of this test for Cc1ccc(C(=O)c2ccc(CC(=O)NN3C(=O)c4ccccc4C3=O)n2C)cc1 ?
No

Record lookup: outcome of this test for COC(=O)c1c2c(n3ccccc13)C(=O)c1ccccc1C2=O ?
No

Record lookup: outcome of this test for Cc1ccc(C)c2c(C)c(C(=O)Nc3cccc(-n4cccn4)c3)oc12 ?
No

Record lookup: outcome of this test for O=c1c2ccccc2c(=O)c2c1sc1c(=O)c3ccc(O)cc3c(=O)c12 ?
Yes

Record lookup: outcome of this test for CN1CCN(CCOc2ccc(-c3cnc4c(-c5ccc(F)cc5)cnn4c3)cc2)CC1 ?
No

Record lookup: outcome of this test for O=C1/C(=C/c2ccc(F)cc2)CN(C(=O)C(Cl)Cl)C/C1=C\c1ccc(F)cc1 ?
Yes

Record lookup: outcome of this test for CSc1nn2c(-c3ccc4ccccc4c3)ccnc2c1C#N ?
No

Record lookup: outcome of this test for COc1cc(OC)c2sc(-c3ccc(-n4cncc4-c4cc(OC)c(OC)c(OC)c4)cc3)nc2c1 ?
No

Record lookup: outcome of this test for Cc1ccc(C(=O)Nc2cccc(C#Cc3cccc4[nH]nc(N)c34)c2)cc1C(F)(F)F ?
No

---

test system: HCT-116 colon; test: NCI-60 one-dose screen, 48 h; conditions: 10 µM unless noted
This is part of a sample that, as a whole, favours compounds with a hit. Of some 83,000 tested, about 20% had one in any assay. The source made the active and inactive calls. The calls were made as follows: active = growth percent below 10; inactive = the rest.
The categories you may choose from are Yes for active, No for inactive

Record lookup: outcome of this test for CN1CCN(c2ccc(NC(=O)c3cncnc3Nc3ccc(OCc4cccc(F)c4)c(Cl)c3)cc2)CC1 ?
No

Record lookup: outcome of this test for O=C(NC(Cc1nnc2n(Cc3ccccc3)c(=O)c3c4c(sc3n12)CCCC4)c1ccccc1)c1ccccc1 (stereo not drawn) ?
No

Record lookup: outcome of this test for CO[C@H]1CC(=O)n2c3ccccc3c3c4c(c5c6ccccc6n1c5c32)C(=O)NC4=O ?
No

Record lookup: outcome of this test for O=C(N=Nc1c(O)[nH]c2ccccc12)Nc1ccc(F)cc1 ?
No

Record lookup: outcome of this test for C=C1CC[C@@H]2C(C)(C)[C@@H](O)CC[C@@]2(C)[C@@H]1COc1ccc2ccc(=O)oc2c1 ?
No

Record lookup: outcome of this test for C=C1C(=O)O[C@H]2[C@H]1CC/C(COC(=O)c1ccc(C(=O)O)s1)=C\CC[C@@]1(C)O[C@@H]21 ?
No

Record lookup: outcome of this test for CN(C)CCCC1(c2ccc(F)cc2)OCc2cc(-c3cc4ccccc4s3)ccc21 (stereo not drawn) ?
Yes

Record lookup: outcome of this test for CC1=C2[C@@H](CC1)[C@]1(C)O[C@@](c3ccccc3)(C[C@H]1OC(=O)CO)[C@H]2OC(=O)/C=C/c1ccccc1 ?
No

Record lookup: outcome of this test for CN1C(=O)/C(=C/c2ccc(C(=O)Nc3ncc(Cc4cccc(Cl)c4)s3)cc2)SC1=S ?
No

Record lookup: outcome of this test for COc1ccc(Cn2cc(C(=O)N=Nc3c(O)[nH]c4c(C)cccc34)nn2)cc1 ?
Yes

Record lookup: outcome of this test for COc1cc(/C=N/Nc2ccc(Br)cc2)cc(OC)c1OC ?
No

Record lookup: outcome of this test for COc1ccc2c(c1)c(-c1nc(-c3c[nH]c4ncccc34)cs1)cn2CCCN1CCOCC1 ?
No

Record lookup: outcome of this test for Cc1ccc(/C=C/C(=O)c2cccc(OCCCOc3cccc(C(=O)/C=C/c4ccc(C)cc4)c3)c2)cc1 ?
No

Record lookup: outcome of this test for Nc1nc(N)c(N=Nc2ccccc2)c(-c2ccccc2)n1 ?
No

Record lookup: outcome of this test for O=C(CSc1nc(-c2ccccc2)cc(=O)[nH]1)Nc1nc(-c2ccccc2)cs1 ?
No

Record lookup: outcome of this test for CC1C=CC(OC(=O)C(C)(O)CCC(O)(C(=O)OC2CC(O)C(C(C)C)CC2(C)O)C(C)C)(C(C)C)CC1 (stereo not drawn) ?
Yes

Record lookup: outcome of this test for CCCC(CC)(C(=O)Nc1ccc2nc(C)cc(N)c2c1)C(=O)Nc1ccc2nc(C)cc(N)c2c1 ?
No

Record lookup: outcome of this test for CC1(C)CC2=C3C=C[C@@H]4[C@@]5(C)CCC(=O)C(C)(C)[C@@H]5CC[C@@]4(C)[C@]3(C)CC[C@@]2(C(=O)O)C[C@H]1O ?
Yes
